Tested on: SK-BR-3
Test: SRB colorimetric assay of cell growth and viability, SK-BR-3
Format: cell-based, human
Details: 48 hours exposure
Where a SMILES comes first, the peptide text is derived from it. Bridges are numbered along the chain shown (N, C = ends). [ ]: non-standard residue; d: D form. The star is where a group is joined. d(aIle) = CC[C@H](C)[C@@H](N)C(=O)O; d(aThr) = C[C@@H](O)[C@@H](N)C(=O)O; Hexanoyl(5-Me) = CC(C)CCCC(=O)*; dCha = N[C@H](CC1CCCCC1)C(=O)O; Orn = NCCC[C@H](N)C(=O)O; Dhb = C/C=C(\N)C(=O)O
# GI50 listing for each entry below
Record the value in nM, omitting the unit from your answer.

C/C=C1\NC(=O)[C@H](Cc2ccccc2)NC(=O)[C@@H](C(C)C)NC(=O)[C@@H]([C@@H](C)CC)NC(=O)[C@H](NC(=O)[C@H](NC(=O)[C@H](CCCN)NC(=O)[C@H]2CCCN2C(=O)[C@H](NC(=O)[C@@H](NC(=O)[C@@H](NC(=O)[C@H](NC(=O)CCCC(C)C)C(C)C)[C@@H](C)O)C(C)C)C(C)C)[C@@H](C)CC)COC(=O)[C@H](C(C)C)NC1=O [Compound 3, [D-Ser^6]-KF] ({Hexanoyl(5-Me)}-[dV]TV[dV][dP][Orn][d(aIle)][dS][d(aIle)][dV]F[Dhb]V; ester 8-C) | 406
C/C=C1\NC(=O)[C@H](Cc2ccccc2)NC(=O)[C@@H](C(C)C)NC(=O)[C@@H](C(C)C)NC(=O)[C@H](NC(=O)[C@H](NC(=O)[C@H](CCCN)NC(=O)[C@H]2CCCN2C(=O)[C@H](NC(=O)[C@@H](NC(=O)[C@@H](NC(=O)[C@H](NC(=O)CCCC(C)C)C(C)C)[C@@H](C)O)C(C)C)C(C)C)C(C)C)[C@@H](C)OC(=O)[C@H](C(C)C)NC1=O [Compound 12, [D-Val^5, D-Val^7]-KF] ({Hexanoyl(5-Me)}-[dV]TV[dV][dP][Orn][dV][d(aThr)][dV][dV]F[Dhb]V; ester 8-C) | 1740
C/C=C1\NC(=O)[C@H](Cc2ccccc2)NC(=O)[C@@H](C(C)C)NC(=O)[C@@H]([C@@H](C)CC)NC(=O)[C@H](NC(=O)[C@H](NC(=O)[C@H](CCCN)NC(=O)[C@H]2CCCN2C(=O)[C@H](NC(=O)[C@@H](NC(=O)[C@@H](NC(=O)[C@H](NC(=O)Cc2cc(F)cc(F)c2)C(C)C)[C@@H](C)O)C(C)C)C(C)C)[C@@H](C)CC)[C@@H](C)OC(=O)[C@H](C(C)C)NC1=O [Compound 22, [3,5-dFPhAc^14]-KF] | 464

Kindly review the next compound as well.
**Query** # lookup: GI50 of C/C=C1\NC(=O)[C@H](Cc2ccccc2)NC(=O)[C@@H](CC2CCCCC2)NC(=O)[C@@H](CC2CCCCC2)NC(=O)[C@H](NC(=O)[C@@H](CC2CCCCC2)NC(=O)[C@H](CCCN)NC(=O)[C@H]2CCCN2C(=O)[C@H](NC(=O)[C@@H](NC(=O)[C@@H](NC(=O)[C@H](NC(=O)CCCC(C)C)C(C)C)[C@@H](C)O)C(C)C)C(C)C)[C@@H](C)OC(=O)[C@H](C(C)C)NC1=O [Compound 11, [D-Cha^4, D-Cha^5, D-Cha^7]-KF] ({Hexanoyl(5-Me)}-[dV]TV[dV][dP][Orn][dCha][d(aThr)][dCha][dCha]F[Dhb]V; ester 8-C)
**Result** 106

// provenance: patent US20070117743A1
